Each item that follows carries a reported IC50.
MEASURED TARGET: full-length BTK C481S enzyme (Homo sapiens (Human), UniProt Q06187, C481S)
Sequence (Q06187 whole entry C481S): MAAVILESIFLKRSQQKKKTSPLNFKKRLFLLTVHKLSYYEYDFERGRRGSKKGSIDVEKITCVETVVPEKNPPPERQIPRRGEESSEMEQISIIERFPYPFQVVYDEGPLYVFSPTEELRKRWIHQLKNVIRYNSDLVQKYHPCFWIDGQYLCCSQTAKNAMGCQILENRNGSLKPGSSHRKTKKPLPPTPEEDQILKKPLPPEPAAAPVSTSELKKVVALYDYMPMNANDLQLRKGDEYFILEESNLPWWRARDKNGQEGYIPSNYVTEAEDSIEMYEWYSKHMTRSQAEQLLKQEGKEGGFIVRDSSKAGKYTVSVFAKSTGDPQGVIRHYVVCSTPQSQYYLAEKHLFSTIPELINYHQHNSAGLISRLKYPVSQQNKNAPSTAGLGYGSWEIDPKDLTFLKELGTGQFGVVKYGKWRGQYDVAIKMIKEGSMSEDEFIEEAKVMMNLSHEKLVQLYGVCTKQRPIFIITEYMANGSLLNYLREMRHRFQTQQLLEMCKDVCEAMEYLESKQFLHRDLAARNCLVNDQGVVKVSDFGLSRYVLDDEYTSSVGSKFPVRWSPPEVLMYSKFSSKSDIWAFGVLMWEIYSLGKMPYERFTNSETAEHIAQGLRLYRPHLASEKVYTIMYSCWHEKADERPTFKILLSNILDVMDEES
ASSAY OVERVIEW: Biochemical kinase assay BTK C481S (IMAP)

Some entries whose results are on file:
Nc1ncc2c3c1c(-c1ccc(C(=O)Nc4cc(C(F)(F)F)ccn4)cc1)nn3[C@@H]1CCC[C@H](C1)NC(=O)CCCOC/C=C/2 [Example 27] :: < 5 nM
Nc1ncc2n3c(nc(-c4ccc(C(=O)Nc5cc(C(F)(F)F)ccn5)cc4)c13)[C@@H]1CC[C@H](C1)NC(=O)CCCCC/C=C/2 [Example 203] :: < 5 nM
Nc1ncc2c3c1c(-c1ccc(C(=O)Nc4cc(C(F)(F)F)ccn4)cc1)nn3[C@@H]1CCC[C@H](C1)NC(=O)COC/C=C\C2 [Example 97b] :: < 5 nM
Nc1ncc2c3c1c(-c1ccc(C(=O)Nc4ccccn4)cc1)nn3[C@@H]1CCC[C@H](C1)NC(=O)CCCC/C=C\C2 [Example 100b] :: < 5 nM
CC1NC/C=C/c2cnc(N)c3c(-c4ccc(C(=O)Nc5cc(C(F)(F)F)ccn5)cc4)nn(c23)CC[C@@H](C)NC1=O (single isomer, unassigned) [Example 144] :: 5 to 50 nM
COc1ccnc(NC(=O)c2ccc(-c3nc4n5c(cnc(N)c35)/C=C/CCOCCC(=O)N[C@@H]3CC[C@@H]4C3)cc2)c1 [Example 217] :: < 5 nM
Nc1ncc2c3c1c(-c1ccc(C(=O)Nc4cc(C(F)(F)F)ccn4)cc1)nn3[C@@H]1CCC[C@H](C1)C(=O)NCCCCCCCCC2 [Example 120] :: 5 to 50 nM
C[C@H]1OC/C=C/c2cnc(N)c3c(-c4ccc(C(=O)Nc5cc(C(F)(F)F)ccn5)cc4)nn(c23)[C@@H]2CCC[C@H](C2)NC1=O [Example 28] :: < 5 nM

Item COc1ccc(F)cc1C(=O)NCc1ccc(-c2nc3n4c(cnc(N)c24)/C=C/CCN[C@H](C)CC(=O)N[C@@H]2CCC[C@@H]3C2)cc1 [Example 212] has what recorded IC50?
< 5 nM

CC(=O)N1C[C@@H]2C[C@@H]1C(=O)NCCCCC/C=C/c1cnc(N)c3c(-c4ccc(C(=O)Nc5cc(C(F)(F)F)ccn5)cc4)nn2c13 [Example 226] , same question.
< 5 nM

C[C@@H]1CCn2nc(-c3ccc(C(=O)Nc4cc(C(F)(F)F)ccn4)cc3)c3c(N)ncc(c32)C/C=C\CCCC(=O)N1 [Example 109a] , same question.
5 to 50 nM

C[C@@H]1CCn2nc(-c3ccc(C(=O)Nc4cc(C(F)(F)F)ccn4)cc3)c3c(N)ncc(c32)CCCO[C@H](C)C(=O)N1 [Example 113] , same question.
5 to 50 nM

C[C@H]1CC(=O)N[C@@H]2CCC[C@H](C2)n2nc(-c3ccc(C(=O)Nc4cc(C(F)(F)F)ccn4)cc3)c3c(N)ncc(c32)/C=C/CCN1C [Example 152] , same question.
< 5 nM

Nc1ncc2c3c1c(-c1ccc(C(=O)Nc4cc(C(F)(F)F)ccn4)cc1)nn3[C@@H]1CCC[C@H](C1)C(=O)NCCC/C=C\C2 [Example 84b] , same question.
< 5 nM

N#Cc1ccnc(NC(=O)c2ccc(-c3nn4c5c(cnc(N)c35)/C=C/CCCCCC(=O)N[C@@H]3CCC[C@@H]4C3)cc2)c1 [Example 163] , same question.
< 5 nM

CN1CCC/C=C/c2cnc(N)c3c(-c4ccc(C(=O)Nc5cc(C(F)(F)F)ccn5)cc4)nn(c23)[C@@H]2CCC[C@H](C2)NC(=O)C1 [Example 41] , same question.
< 5 nM

C[C@@H]1CCn2nc(-c3cnn(Cc4ccccc4)c3)c3c(N)ncc(c32)/C=C/CCCCCC(=O)N1 [Example 171] , same question.
50 to 500 nM

C[C@@H]1CC(=O)N[C@@H]2CC[C@H](C2)c2nc(-c3ccc(C(=O)Nc4cc(C#N)ccn4)cc3)c3c(N)ncc(n23)/C=C/CCN1 [Example 218] , same question.
< 5 nM

CC1NC/C=C/c2cnc(N)c3c(-c4ccc(C(=O)Nc5cc(C(F)(F)F)ccn5)cc4)nn(c23)[C@@H]2CCC[C@H](C2)NC1=O (stereo partly drawn) [Example 145] , same question.
< 5 nM

C[C@@H]1CCn2nc(-c3ccc(C(=O)Nc4cc(C(F)(F)F)ccn4)cc3)c3c(N)ncc(c32)/C=C/CCOCCC(=O)N1 [Example 69] , same question.
< 5 nM

Nc1ncc2c3c1c(-c1ccc(C(=O)Nc4cc(C(F)(F)F)ccn4)cc1)nn3[C@@H]1CCC[C@H](C1)NC(=O)CCCNC/C=C/C2 [Example 107] , same question.
5 to 50 nM

Nc1ncc2c3c1c(-c1ccc(C(=O)Nc4cc(C(F)(F)F)ccn4)cc1)nn3[C@@H]1CCC[C@H](C1)C(=O)NCCCC/C=C\C2 [Example 85b] , same question.
< 5 nM

COc1ccc(F)cc1C(=O)NCc1ccc(-c2nc3n4c(cnc(N)c24)/C=C/COCCC(=O)N[C@@H]2CCC[C@@H]3C2)cc1 [Example 211] , same question.
< 5 nM

C[C@@H]1CC(=O)N[C@@H]2CCC[C@H](C2)n2nc(-c3ccc(C(=O)Nc4cc(C(F)(F)F)ccn4)cc3)c3c(N)ncc(c32)/C=C/CCN1 [Example 45] , same question.
< 5 nM
